Entry source: paper PMC8310135

CC50 by entry:
# System: Huh7 cells
# condition-info: human
Counter-ions that a name gives are not always drawn.
Return type: number; implicit unit µM.

Use the examples below as a reference point.
>>> data_value("O=C(NCCCNc1nc(Nc2cccc(NC(=O)N3CCCC3)c2)ncc1I)c1cccs1 [BX-795]")
9.91
>>> data_value("COC1=CC(c2cc3ccccc3[nH]2)=N/C1=C\\c1[nH]c(C)cc1C [Obatoclax]")
1.5
>>> data_value("O=C(c1ccc(OCCN2CCCCC2)cc1)c1c(-c2ccc(O)cc2)sc2cc(O)ccc12 [Raloxifene (Evista), Raloxifene]")
9.29
>>> data_value("O=C(Nc1ccc([N+](=O)[O-])cc1Cl)c1cc(Cl)ccc1O [Niclosamide]")
0.272
>>> data_value("Cc1c(-c2ccc(O)cc2)n(Cc2ccc(OCCN3CCCCCC3)cc2)c2ccc(O)cc12 [Bazedoxifene HCL]")
6.68
>>> data_value("CN(C)C/C=C/C(=O)Nc1cc2c(Nc3ccc(F)c(Cl)c3)ncnc2cc1O[C@H]1CCOC1 [Afatinib]")
7.64

Which CC50 value belongs to NCC(=O)Nc1ccc(-n2nc(C(F)(F)F)cc2-c2ccc3c(ccc4ccccc43)c2)cc1 [AR-12] ?
5.52

Which CC50 value belongs to COc1c(C)c2c(c(O)c1C/C=C(\C)CCC(=O)O)C(=O)OC2 [Mycophenolic acid (MPA), Mycophenolic acid] ?
2.04

Which CC50 value belongs to CC/C(=C(\c1ccccc1)c1ccc(OCCN(C)C)cc1)c1ccccc1 [Tamoxifene citrate] ?
7.37
